These entries and their values trace back to ChEMBL document CHEMBL1138987.

- assayed.system: Melanocortin receptor 5 (Homo sapiens)
- Sequence (P33032 whole entry): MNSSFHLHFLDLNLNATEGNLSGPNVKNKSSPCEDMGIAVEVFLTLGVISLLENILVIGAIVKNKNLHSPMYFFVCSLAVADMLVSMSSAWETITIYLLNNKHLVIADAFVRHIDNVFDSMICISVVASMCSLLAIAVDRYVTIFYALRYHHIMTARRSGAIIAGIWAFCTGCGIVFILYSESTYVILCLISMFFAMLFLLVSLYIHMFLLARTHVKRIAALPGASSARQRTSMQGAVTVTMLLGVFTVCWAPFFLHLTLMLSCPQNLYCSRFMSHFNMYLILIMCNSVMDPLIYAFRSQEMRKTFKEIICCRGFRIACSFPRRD
- procedure.text: Inhibitory activity against hMC5R transfected in HEK293 cells
readout.name: IC50 (nM)

A = CCCC[C@@H]1NC(=O)CC[C@@H](C(N)=O)NC(=O)[C@H](Cc2c[nH]c3ccccc23)NC(=O)[C@H](CCCN=C(N)N)NC(=O)[C@@H](Cc2ccc3ccccc3c2)NC(=O)[C@H](CCC(=O)O)NC1=O
B = CCCC[C@@H]1NC(=O)CC[C@@H](C(N)=O)NC(=O)[C@H](Cc2c[nH]c3ccccc23)NC(=O)[C@H](CCCN=C(N)N)NC(=O)[C@@H](Cc2ccc3ccccc3c2)NC(=O)[C@H](CCCC)NC1=O
C = CCCC[C@@H]1NC(=O)CC[C@@H](C(N)=O)NC(=O)[C@H](Cc2c[nH]c3ccccc23)NC(=O)[C@H](CCCN=C(N)N)NC(=O)[C@@H](Cc2ccccc2)NC(=O)[C@H](C(C)C)NC1=O
D = CCCC[C@@H]1NC(=O)CC[C@@H](C(N)=O)NC(=O)[C@H](Cc2c[nH]c3ccccc23)NC(=O)[C@H](CCCN=C(N)N)NC(=O)[C@@H](Cc2ccc3ccccc3c2)NC(=O)[C@@H]2CCCN2C1=O
Exam item: list the entries in increasing order of IC50. // list labels; follow requested order B, D, A, C
(B: 3.8 nM, D: 10 nM, A: 44 nM, C: 110 nM)

====

Here the recorded pIC50 is given for each entry.
- assayed.system: Melanocortin receptor 5 (Homo sapiens)
- procedure.text: Inhibitory activity against hMC5R transfected in HEK293 cells
- Format: cell-based
# log scale: pIC50 equals minus log10 of the concentration in mol/L

Please review the entries below; each comes with its answer.
1) CCCC[C@@H]1NC(=O)CC[C@@H](C(N)=O)NC(=O)[C@H](Cc2c[nH]c3ccccc23)NC(=O)[C@H](CCCN=C(N)N)NC(=O)[C@@H](Cc2ccccc2)NC(=O)[C@@H]2CCCN2C1=O    6.40
2) CCCC[C@@H]1NC(=O)CC[C@@H](C(N)=O)NC(=O)[C@H](Cc2c[nH]c3ccccc23)NC(=O)[C@H](CCCN=C(N)N)NC(=O)[C@@H](Cc2ccccc2)NC(=O)[C@H](CCCN=C(N)N)NC1=O    7.17

Shift focus to the following entry.
Return value of pIC50 for input `CCCC[C@@H]1NC(=O)CC[C@@H](C(N)=O)NC(=O)[C@H](Cc2c[nH]c3ccccc23)NC(=O)[C@H](CCCN=C(N)N)NC(=O)[C@@H](Cc2ccc3ccccc3c2)NC(=O)[C@H](CCC(N)=O)NC1=O` , no commentary. 8.85

====

- assayed.system: Melanocortin receptor 5 (Homo sapiens)
- procedure.text: Inhibitory activity against hMC5R transfected in HEK293 cells
readout.name: IC50 (nM)
Write the number in nM without appending the unit.

Please review the entries below; each comes with its answer.
1) CCCC[C@@H]1NC(=O)CC[C@@H](C(N)=O)NC(=O)[C@H](Cc2c[nH]c3ccccc23)NC(=O)[C@H](CCCN=C(N)N)NC(=O)[C@@H](Cc2ccccc2)NC(=O)[C@H](CCC(N)=O)NC1=O    500
2) CCCC[C@@H]1NC(=O)CC[C@@H](C(N)=O)NC(=O)[C@H](Cc2c[nH]c3ccccc23)NC(=O)[C@H](CCCN=C(N)N)NC(=O)[C@@H](Cc2ccc3ccccc3c2)NC(=O)[C@H](Cc2cnc[nH]2)NC1=O    2.3

Shift focus to the following entry.
Return value of IC50 for input `CCCC[C@@H]1NC(=O)CC[C@@H](C(N)=O)NC(=O)[C@H](Cc2c[nH]c3ccccc23)NC(=O)[C@H](CCCN=C(N)N)NC(=O)[C@@H](Cc2ccc3ccccc3c2)NC(=O)[C@H](CCCN=C(N)N)NC1=O` , no commentary. 2.3
